Data origin, for the record: the supplement of paper PMC9103864

test system: BMSC (primary human bone marrow mesenchymal stromal cells); assay: absolute EC50 for viability; higher = less sensitive
I'd appreciate it if you could supply absolute EC50 for viability values for the items below.

Reference set, count: 3
N#Cc1ccnc(N2C(=O)CC[C@H]2C(=O)N(c2cncc(F)c2)[C@H](C(=O)NC2CC(F)(F)C2)c2ccccc2Cl)c1 [Ivosidenib] | > 10 µM
C[C@@H](Oc1ccc2[nH]nc(/C=C/c3cnn(CCO)c3)c2c1)c1c(Cl)cncc1Cl | > 1 µM
CN1C(=O)N[C@H](Cc2c[nH]c3c(Cl)cccc23)C1=O [Necrostatin 2] | > 10 µM

# batch size: 2; output absolute EC50 for viability per entry
1. CC(C)Nc1cc(-c2c[nH]c(C(=O)N[C@H](CO)c3cccc(Cl)c3)c2)c(Cl)cn1 [Ulixertinib]
2. N#Cc1ccc(COC[C@H]2O[C@@H](n3c(NCc4ccc(Cl)c(Cl)c4)nc4c(N)ncnc43)[C@H](O)[C@@H]2O)cc1

Response line:
1: > 10 µM; 2: > 10 µM
